tested on: Escherichia coli IAI1; test: growth AUC relative to DMSO control (median of replicates) (fraction); higher = more growth (less inhibition), active = hit call of the paper; conditions: 20 µM; 24 h
I'd be grateful if you could share measured growth AUC for these entries.

Value (growth AUC, Escherichia coli IAI1) for record "CCS(=O)(=O)Cc1ccccc1OC(=O)NC" = 1 (inactive)

I looked up CNC(=O)ON=C(C)C(C)SC (stereo unspecified) and its growth AUC for Escherichia coli IAI1 was 1.02 (inactive)

// growth AUC (Escherichia coli IAI1) for "C[C@@H](Oc1ccc(Oc2cnc3cc(Cl)ccc3n2)cc1)C(=O)O" = 1 (inactive)

Hey, Escherichia coli IAI1 data for "Clc1cccc(Cl)c1Cl" : growth AUC came out at 0.997 (inactive)

For the molecule "COP(=S)(OC)Oc1c(Cl)cc(C)cc1Cl" , the measured growth AUC on Escherichia coli IAI1 was 0.99 (inactive)

The molecule "CCCCCCCCSC(=O)Oc1cc(Cl)nnc1-c1ccccc1" , when measured on Escherichia coli IAI1, yielded growth AUC of 0.972 (inactive)

###

system: Lactobacillus gasseri; experiment: growth AUC relative to DMSO control (median of replicates) (fraction); higher = more growth (less inhibition), active = hit call of the paper; conditions: 20 µM; 24 h
reported_metric: growth AUC
The reply should be a number, written without any unit.

The measured growth AUC associated with CC1COC(Cn2cncn2)(c2ccc(Oc3ccc(Cl)cc3)cc2Cl)O1 (stereo not given) reads 0.952

For CCOP(=S)(Oc1ccc([N+](=O)[O-])cc1)c1ccccc1 (stereo not given) the molecule record lists growth AUC as 1.04

The molecule listed as "CCCN(CCOc1c(Cl)cc(Cl)cc1Cl)C(=O)n1ccnc1" has a reported growth AUC of 1.11

Consider "O=C(O)CNCP(=O)(O)O" . Its measured growth AUC is 1.04

Entry "Cc1ccc(N(SC(F)(Cl)Cl)S(=O)(=O)N(C)C)cc1" — recorded growth AUC = 1.07

According to the records, this molecule "Cc1nc(N(C)C=O)nc(OC(=O)N(C)C)c1C" displays growth AUC of 0.976

Lab note: "CNC(=O)O/N=C/C(C)(C)SC" gave growth AUC of 1.12

Reported growth AUC ( "Nc1c([N+](=O)[O-])ccc(Oc2ccccc2)c1Cl" ) = 1.02

Reported growth AUC of "CNC(=O)/C(=N/OC)c1ccccc1Oc1ccccc1" : 1.04

# molecule "COc1cnc(OC)n2nc(NS(=O)(=O)c3c(OCC(F)F)cccc3C(F)(F)F)nc12" ; its growth AUC = 1.08

Just so you know, measured growth AUC for "Oc1c(Br)cc(Br)cc1Br" came out at 1.13

Recorded result, "CC(=O)O.CCCCCCCCCCCCN=C(N)N" , growth AUC: 0.794

The molecule listed as "CCS(=O)(=O)Cc1ccccc1OC(=O)NC" shows growth AUC equal to 0.958

Measured growth AUC, "N#CCNC(=O)c1cnccc1C(F)(F)F" : 1.06

"CN(C)C(CSC(N)=O)CSC(N)=O.Cl" yielded growth AUC of 0.978

Query COP(=O)(OC)Oc1ccc(S(C)=O)c(C)c1 (stereo not given) yields growth AUC of 1.13

growth AUC measured on "CNC(=S)S" = 1.02

"CCCOCC(=Nc1ccc(Cl)cc1C(F)(F)F)n1ccnc1" yielded growth AUC of 0.894

The recorded growth AUC for "Nc1cc(Cl)cc(Cl)c1" is 0.944

Briefly, growth AUC measured for "Oc1ccccc1Cl" : 1.05

What the record says about "Cc1cc(Cl)ccc1O[C@H](C)C(=O)O" : growth AUC is 0.873

growth AUC reported for this molecule "COC(=O)N(OC)c1ccccc1COc1ccn(-c2ccc(Cl)cc2)n1" : 0.88

Kindly note the recorded growth AUC for "CN1COCN(Cc2cnc(Cl)s2)/C1=N/[N+](=O)[O-]" , which is 1.04

The molecule CCOC(=O)OC1=C(c2cc(C)ccc2C)C(=O)NC12CCC(OC)CC2 (stereo not given) showed growth AUC equal to 0.993

growth AUC recorded for this molecule, "O=C(NC(=O)c1c(F)cccc1F)Nc1ccc(CO/N=C(\c2ccc(Cl)cc2)C2CC2)cc1" , is 0.963
